Values from PubChem BioAssay AID624129

- system name: C-C chemokine receptor type 6 (Homo sapiens)
- measurement description: potency against CXCR6 with APJ panel – cell-based, beta-arrestin, DiscoveRx, uHTS hits, dose response (AID 624129)
- condition info: CXCR6 beta-arrestin (DiscoveRx) antagonist cell assay, CCR6, run 2, dose range 1
Recorded measurements of IC50, one per entry
Report as a plain number; the unit µM is understood.

compound=CS(=O)(=O)c1ccc(C(=O)OCc2nnc(-c3ccccc3)o2)cc1[N+](=O)[O-] readout_value=9.67
compound=O=C1C=CC2(C=C1)O[C@H](Cc1ccccc1)[C@@H](Cc1ccccc1)O2 readout_value=5.06

# input for lookup
Looking up CC(=NNc1nc2ccccc2s1)c1ncccn1 , I found its IC50 recorded as 10.3

----------
Here, each record is paired with measured pIC50 data.
- system name: C-X-C chemokine receptor type 6 (Homo sapiens) (UniProt O00574)
- Sequence (O00574 whole entry, looked up): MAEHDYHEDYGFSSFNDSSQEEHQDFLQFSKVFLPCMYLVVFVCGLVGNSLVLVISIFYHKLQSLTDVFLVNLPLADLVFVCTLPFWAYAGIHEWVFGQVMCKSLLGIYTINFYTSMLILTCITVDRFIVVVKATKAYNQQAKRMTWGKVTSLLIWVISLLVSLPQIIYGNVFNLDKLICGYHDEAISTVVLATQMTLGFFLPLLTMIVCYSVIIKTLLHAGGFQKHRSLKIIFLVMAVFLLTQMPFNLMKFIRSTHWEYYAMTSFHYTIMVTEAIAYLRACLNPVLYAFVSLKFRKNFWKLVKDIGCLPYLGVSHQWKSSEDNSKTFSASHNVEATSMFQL
- measurement description: potency against CXCR6 with APJ panel – cell-based, beta-arrestin, DiscoveRx, uHTS hits, dose response (AID 624129)
- condition info: CXCR6 beta-arrestin (DiscoveRx) antagonist cell assay, CXCR6, dose range 1, mean IC50 across replicates
# pIC50 is unitless: minus log10 of the molar concentration; print number only

Examples with their reported pIC50 follow.
molecule=C=C1C(=O)O[C@@H]2C[C@@H](C)[C@@H]3C=CC(=O)[C@@]3(C)[C@@H](OC(=O)CC(=O)O[C@H]3[C@@H]4C(=C)C(=O)O[C@@H]4C[C@@H](C)[C@@H]4C=CC(=O)[C@]43C)[C@H]12 readout_value=5.40
molecule=Cc1ccc(S(=O)(=O)Nc2cccc3cccnc23)cc1 readout_value=5.09
molecule=COC(=O)CSc1[nH]c2ccc(Br)cc2c1[N+](=O)[O-] readout_value=4.37
molecule="CCCC/C=C1/CCC(CN(C)C)C1=O (stereo unspecified)" readout_value=4.65
molecule="CC(C)N=C1CCCC1C(=S)SSC(=S)C1CCCC1=NC(C)C (stereo unspecified)" readout_value=4.94

Short answer on C-X-C chemokine receptor type 6 (Homo sapiens) (UniProt O00574) for O=[N+]([O-])c1ccc(N/N=C/c2sc(N3CCOCC3)nc2-c2ccccc2)c(S(=O)(=O)Nc2ccc(Cl)cc2)c1 , pIC50: 4.26

C-X-C chemokine receptor type 6 (Homo sapiens) (UniProt O00574) pIC50 of O=C(Nc1nc2c(F)cc(F)cc2s1)c1ccccn1 is 5.95

The value of pIC50 recorded for O=C(NC(=S)Nc1ccccc1O)c1cncc(Br)c1 when tested on C-X-C chemokine receptor type 6 (Homo sapiens) (UniProt O00574) reads 4.55

----------
- system name: C-C chemokine receptor type 6 (Homo sapiens) (UniProt P51684)
- measurement description: potency against CXCR6 with APJ panel – cell-based, beta-arrestin, DiscoveRx, uHTS hits, dose response (AID 624129)
- condition info: CXCR6 beta-arrestin (DiscoveRx) antagonist cell assay, CCR6, run 2, dose range 1
# Lookup of reported log10 IC50 keyed by entry
Remember, log10 of IC50, in µM.

Answered examples (2):
compound=Cc1ccc(NC(=S)N/N=C/c2ccc([N+](=O)[O-])s2)cc1 observed_property="log10 IC50" readout_value=0.80
compound=C/C(=N/NC(=O)c1ccc(C(C)(C)C)cc1)c1ccccn1 observed_property="log10 IC50" readout_value=0.26

Considering O=C(OCn1ncc(Cl)c(Cl)c1=O)c1cccc(C(F)(F)F)c1 , its log10 IC50 with C-C chemokine receptor type 6 (Homo sapiens) (UniProt P51684) was recorded as 1.26

Value sought: log10 IC50, system C-C chemokine receptor type 6 (Homo sapiens) (UniProt P51684), item CCN(c1ccccc1)S(=O)(=O)c1ccc(NC(=O)c2nc(S(C)(=O)=O)ncc2Cl)cc1 . Result: 1.01

The value of log10 IC50 recorded for Cn1nc([N+](=O)[O-])nc1Sc1cccc2cccnc12 when tested on C-C chemokine receptor type 6 (Homo sapiens) (UniProt P51684) reads 1.18

Known value: C-C chemokine receptor type 6 (Homo sapiens) (UniProt P51684) log10 IC50 of the molecule N#CC(C#N)=C1C=CC=CN1/C(=C\c1ccccc1Cl)C(=O)c1ccccc1 equals 0.76

Measured log10 IC50 (C-C chemokine receptor type 6 (Homo sapiens) (UniProt P51684)), entry O=C(N/N=C(\c1ccccc1)c1cccnc1)c1cccc(F)c1 : 0.69

Case CC(=O)Nc1ccc(NC(=O)c2nc(S(=O)(=O)Cc3cccc(C)c3)ncc2Cl)cc1 , C-C chemokine receptor type 6 (Homo sapiens) (UniProt P51684), log10 IC50 recorded as 0.66

Entry O=C1c2ccccc2C(=O)N1OS(=O)(=O)c1ccc(F)cc1 under C-C chemokine receptor type 6 (Homo sapiens) (UniProt P51684) had log10 IC50 of 1.71
